Hey, just so you know, these numbers are from patent US6194451A.

Assay: Pharmacokinetic Assay (Protocol C): plasma levels after i.v. and oral administration to rats
Assay type: in vivo, rat (male Sprague-Dawley)
Details: rat, plasma, oral, 15 mg/kg
endpoint_name: AUC (ng·h/mL)

CNC(=O)[C@@H](NC(=O)[C@H](CC(C)C)[C@](O)(CO)C(=O)NO)C(C)(C)C [Example 3]
1100
CNC(=O)[C@@H](NC(=O)[C@H](CC(C)C)[C@](O)(COC(=O)NC1CCCCC1)C(=O)NO)C(C)(C)C [Example 16]
1330

###

Assay: Aqueous solubility
Type: physicochemical
Conditions: water, pH 7.0, 25° C.
endpoint_name: solubility (µg/mL)

CC(C)C[C@@H](C(=O)N1CCOCC1)[C@](O)(COC(=O)c1ccccc1)C(=O)NO
1900

P: CNC(=O)[C@H](Cc1ccccc1)NC(=O)[C@H](CC(C)C)[C@](O)(CO)C(=O)NO
Q: CNC(=O)[C@@H](NC(=O)[C@H](CC(C)C)[C@@](COC1CCCCO1)(OC1CCCCO1)C(=O)NO)C(C)(C)C (stereo partly shown)
[ask] Lab notebook, comparison: P versus Q , higher solubility goes to which? Give the chosen item's label as your response.
[reply] Q
(Q: 10000 µg/mL, P: 6000 µg/mL)

###

Test: Pharmacokinetic Assay (Protocol C): plasma levels after i.v. and oral administration to rats
Type: in vivo, rat (male Sprague-Dawley)
Settings: rat, plasma, iv, 15 mg/kg
endpoint_name: clearance (mL/min/kg)

CNC(=O)[C@@H](NC(=O)[C@H](CC(C)C)[C@](O)(COC(=O)NC1CCCCC1)C(=O)NO)C(C)(C)C
11
CNC(=O)[C@@H](NC(=O)[C@H](CC(C)C)[C@](O)(CO)C(=O)NO)C(C)(C)C
9.89

###

Target: MMP-1 (human interstitial collagenase) (Homo sapiens, UniProt P03956)
Construct: truncated recombinant enzyme encompassing residues 101-269
Sequence (P03956 101-269): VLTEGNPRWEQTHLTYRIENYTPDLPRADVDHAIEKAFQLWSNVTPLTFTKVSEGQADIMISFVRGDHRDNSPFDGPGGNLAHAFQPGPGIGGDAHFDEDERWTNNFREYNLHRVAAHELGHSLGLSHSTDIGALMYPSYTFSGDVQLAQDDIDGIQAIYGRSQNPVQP
Assay: Biochemical Assay (Protocol A): inhibition of human collagenase, fluorimetric peptide substrate
Conditions: MMP-1, pH 7.4, 37° C.
pKi: −log10 of the molar value.
endpoint_name: pKi

Before answering, review these 2 worked examples.
CNC(=O)[C@H](Cc1ccccc1)NC(=O)[C@H](CC(C)C)[C@](O)(COC1CCCCO1)C(=O)NO (stereo partly shown)
8.57
CC(=O)OC[C@](O)(C(=O)NO)[C@@H](CC(C)C)C(=O)N[C@H](C(=O)Nc1ccncc1)C(C)(C)C
8.14

P: CNC(=O)[C@H](Cc1ccccc1)NC(=O)[C@H](CC(C)C)[C@](O)(CO)C(=O)NO
Q: CNC(=O)[C@@H](NC(=O)[C@H](CC(C)C)[C@](O)(COC(=O)C(C)(C)C)C(=O)NO)C(C)(C)C
[ask] Of P and Q , which carries the smaller reported pKi figure? Give the chosen item's label as your response.
[reply] Q

A: CNC(=O)[C@@H](NC(=O)[C@H](CC(C)C)[C@](O)(COC(C)=O)C(=O)NO)C(C)(C)C
B: CC(C)C[C@@H](C(=O)N[C@H](C(=O)Nc1ccncc1)C(C)(C)C)[C@](O)(CO)C(=O)NO
[ask] Of A and B , which carries the smaller reported pKi figure? Give the chosen item's label as your response.
[reply] B

###

pKi: −log10 of the molar value.
Endpoint: pKi. System: MMP-3 (human stromelysin-1) (Homo sapiens). Items follow.
Sequence (P08254 100-477): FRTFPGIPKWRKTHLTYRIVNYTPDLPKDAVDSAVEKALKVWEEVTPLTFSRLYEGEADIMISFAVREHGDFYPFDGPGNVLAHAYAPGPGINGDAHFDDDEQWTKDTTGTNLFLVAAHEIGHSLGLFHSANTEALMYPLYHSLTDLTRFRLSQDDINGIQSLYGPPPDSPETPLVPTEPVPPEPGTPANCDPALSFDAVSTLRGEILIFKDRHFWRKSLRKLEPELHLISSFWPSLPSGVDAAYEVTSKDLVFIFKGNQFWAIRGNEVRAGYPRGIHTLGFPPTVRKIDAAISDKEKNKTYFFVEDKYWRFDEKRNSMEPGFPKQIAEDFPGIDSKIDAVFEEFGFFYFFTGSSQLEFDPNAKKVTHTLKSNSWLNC
endpoint_name: pKi

CNC(=O)[C@H](Cc1ccccc1)NC(=O)[C@H](CC(C)C)[C@](O)(CO)C(=O)NO
7.49

I: CNC(=O)[C@@H](NC(=O)[C@H](CC(C)C)[C@](O)(COC(=O)NC1CCCCC1)C(=O)NO)C(C)(C)C
II: CNC(=O)[C@@H](NC(=O)[C@H](CC(C)C)[C@@](COC1CCCCO1)(OC1CCCCO1)C(=O)NO)C(C)(C)C (stereo partly drawn)
[ask] Of I and II , which carries the smaller reported pKi figure? Give the chosen item's label as your response.
[reply] II
